- Assay system: T1, human GITR (amino acids M1-V241, NCBI Accession #NP_004186.1) expressed on cells (human, UniProt Q9Y5U5 26-241)
- T1 sequence: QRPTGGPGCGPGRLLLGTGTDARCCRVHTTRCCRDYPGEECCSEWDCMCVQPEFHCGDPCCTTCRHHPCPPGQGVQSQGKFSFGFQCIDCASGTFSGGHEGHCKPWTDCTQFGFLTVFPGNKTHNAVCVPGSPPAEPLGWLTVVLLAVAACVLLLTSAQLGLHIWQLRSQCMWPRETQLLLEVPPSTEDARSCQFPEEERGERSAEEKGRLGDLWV
- Test summary: cell-based or functional assay
Measured property: % Activation, NF-kB-Luc, non-anchored (%)

- Binder: "H4H14475P (antibody, human IgG4, V domains shown, human IgG4 (H4H)) VH: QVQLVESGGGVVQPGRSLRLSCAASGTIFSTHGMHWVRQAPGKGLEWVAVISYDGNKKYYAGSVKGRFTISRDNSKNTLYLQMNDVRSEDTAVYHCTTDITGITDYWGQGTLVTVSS VL: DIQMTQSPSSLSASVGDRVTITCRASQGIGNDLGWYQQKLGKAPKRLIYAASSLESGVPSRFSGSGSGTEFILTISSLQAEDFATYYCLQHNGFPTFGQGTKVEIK"
  Measured property: "% Activation, NF-kB-Luc, non-anchored"
  Result number: 70
- Binder: "H4H14528P (antibody, human IgG4, V domains shown, human IgG4 (H4H)) VH: QVQLVESGGGVVQPGRSLRISCAASGFTFNNYGFHWVRQAPGRGLEWVAVIWYSGSNKYYGDSVKGRFTISRDNSKNILYLQMNSLRAEDTAIYYCARFPFSSSWLLDYWGQGTLVTVSS VL: DIQLTQSPSFLSASVGDRVTFTCWASQGISDYLAWYQQKPGKAPKLLIYAASALQSGVPSRFSGSGSGTEFTLTVSSLQPEDFATYYCQQLNSYPFTFGPGTKVDIK"
  Measured property: "% Activation, NF-kB-Luc, non-anchored"
  Result number: 30
- Binder: "H4H14516P (antibody, human IgG4, V domains shown, human IgG4 (H4H)) VH: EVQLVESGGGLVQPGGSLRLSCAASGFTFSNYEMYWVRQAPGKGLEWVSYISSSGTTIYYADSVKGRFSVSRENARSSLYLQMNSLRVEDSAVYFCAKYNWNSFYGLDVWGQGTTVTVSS VL: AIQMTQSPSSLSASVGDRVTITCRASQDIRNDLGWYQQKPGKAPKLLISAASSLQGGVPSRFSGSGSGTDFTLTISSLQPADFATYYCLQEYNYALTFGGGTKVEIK"
  Measured property: "% Activation, NF-kB-Luc, non-anchored"
  Result number: 45
- Binder: "H1H14524P (antibody, human IgG1, V domains shown, human IgG1 (H1H)) VH: QVQLVESGGGVAQPGRSLSLSCAASGFTFSDYGMHWVRQAPGKGLEWVAVIWYAGSNKYYADSVKDRFTISRDNSKNTLYLQMRSLRVEDTAVYYCARGGELRLDYYSGLDVWGQGTTVTVSS VL: DIQMTQSPSSLSASVGDRVTVTCRASQGIRSDLGWYQQKPGKAPKRLIYAASSFQSGVPSRFSGSGSGTEFTLTISSLHPEDFATYYCLQSNNYPWTFGQGTKVEIK"
  Measured property: "% Activation, NF-kB-Luc, non-anchored"
  Result number: 40
- Binder: "H1H14493P (antibody, human IgG1, V domains shown, human IgG1 (H1H)) VH: QVQLVESGGGVVQPGRSLRLSCAASGFNFRSYGMHWVRQAPGKGLEWVAVIWYDGSNKYYADSVKGRFTISRDSSRDTLFLQMNSLRAGDTAVYYCARGGMLGRDYYYGMDVWGQGTTVTVSS VL: DIQMTQSPSSLSASVGDRVTITCRASQGIRNDLGWYQQKPGKAPKRLIYAASSLQSGVPSRFSGSGSGTEFTLTISSLQPEDFATYYCLQHNSYPNTFGQGTKLEIK"
  Measured property: "% Activation, NF-kB-Luc, non-anchored"
  Result number: 25
